System: Plasmodium falciparum
Assay: Antimalarial activity against Plasmodium falciparum K1 assessed as inhibition of malarial growth
Assay type: functional, organism-based
Reported IC50 values for the following molecules.
Provide only the numeric value, understood in nM.

Check out these entries, answers already filled in.
INSERT INTO measurements (molecule, readout_kind, scale_unit, assay_result) VALUES
  ('C[C@@H]1CC[C@H]2[C@@H](C)C(CCOC(=O)CCC(=O)OCCC3O[C@H]4O[C@@]5(C)CC[C@H]6[C@H](C)CC[C@@H]([C@H]3C)[C@@]46OO5)O[C@H]3O[C@@]4(C)CC[C@@H]1[C@]32OO4 (some centres undefined)', 'IC50', 'nM', 1.8),
  ('C[C@@H]1CC[C@H]2[C@@H](C)C(CCOCc3ccc(COCCC4O[C@H]5O[C@@]6(C)CC[C@H]7[C@H](C)CC[C@@H]([C@H]4C)[C@@]57OO6)cc3)O[C@H]3O[C@@]4(C)CC[C@@H]1[C@]32OO4 (some centres undefined)', 'IC50', 'nM', 2.4),
  ('C[C@H]1[C@H](CCCC[C@H]2O[C@H]3O[C@@]4(C)CC[C@H]5[C@H](C)CC[C@@H]([C@H]2C)[C@@]35OO4)O[C@H]2O[C@@]3(C)CC[C@H]4[C@H](C)CC[C@@H]1[C@@]24OO3', 'IC50', 'nM', 1.4);

Record request: IC50 value, item C[C@@H]1CC[C@H]2[C@@H](C)C(CCOC(=O)CCCC(=O)OCCC3O[C@H]4O[C@@]5(C)CC[C@H]6[C@H](C)CC[C@@H]([C@H]3C)[C@@]46OO5)O[C@H]3O[C@@]4(C)CC[C@@H]1[C@]32OO4 (some centres undefined) 2.4

* * *

Reported pIC50 values for the following compounds.
System: SK-OV-3
Test: Antiproliferative activity against human SK-OV-3 cells assessed as reduction in cell viability incubated for 48 hrs by MTT assay
Assay type: functional, cell-based
Settings: SK-OV-3, 48 h
Would you please state pIC50, meaning minus log10 of the concentration in mol/L, as a bare number?

Check out these entries, answers already filled in.
INSERT INTO measurements (compound, assay_result) VALUES
  ('C[C@@H]1CC[C@H]2[C@@H](C)C(OCC(COC3O[C@H]4O[C@@]5(C)CC[C@H]6[C@H](C)CC[C@@H]([C@H]3C)[C@@]46OO5)OC(=O)CCC(=O)O)O[C@H]3O[C@@]4(C)CC[C@@H]1[C@]32OO4 (some centres undefined)', 4.60),
  ('C[C@@H]1CC[C@H]2[C@@H](C)C(OCC(COC3O[C@H]4O[C@@]5(C)CC[C@H]6[C@H](C)CC[C@@H]([C@H]3C)[C@@]46OO5)=NO)O[C@H]3O[C@@]4(C)CC[C@@H]1[C@]32OO4 (some centres undefined)', 4.82),
  ('CC(=O)O[C@H]1C(=O)[C@@]2(C)[C@H]([C@H](OC(=O)c3ccccc3)[C@]3(O)C[C@H](OC(=O)[C@H](O)[C@@H](NC(=O)c4ccccc4)c4ccccc4)C(C)=C1C3(C)C)[C@]1(OC(C)=O)CO[C@@H]1C[C@@H]2O', 10.00);

Record request: pIC50 value, item COc1cccc2c1C(=O)c1c(O)c3c(c(O)c1C2=O)C[C@@](O)(C(=O)CO)C[C@@H]3O[C@H]1C[C@H](N)[C@H](O)[C@H](C)O1 8.05
